Listed below: IC50 values for each entry.
molecular target: rat MASP1 (Rattus norvegicus (Rat), UniProt Q8CHN8); assay: Biochemical rat MASP1 assay (FRET substrate); details: Average IC50; recombinant rat MASP1; read-out: rat MASP1 IC50
Sequence (Q8CHN8 other isoform, or with tags, fused parts or gaps): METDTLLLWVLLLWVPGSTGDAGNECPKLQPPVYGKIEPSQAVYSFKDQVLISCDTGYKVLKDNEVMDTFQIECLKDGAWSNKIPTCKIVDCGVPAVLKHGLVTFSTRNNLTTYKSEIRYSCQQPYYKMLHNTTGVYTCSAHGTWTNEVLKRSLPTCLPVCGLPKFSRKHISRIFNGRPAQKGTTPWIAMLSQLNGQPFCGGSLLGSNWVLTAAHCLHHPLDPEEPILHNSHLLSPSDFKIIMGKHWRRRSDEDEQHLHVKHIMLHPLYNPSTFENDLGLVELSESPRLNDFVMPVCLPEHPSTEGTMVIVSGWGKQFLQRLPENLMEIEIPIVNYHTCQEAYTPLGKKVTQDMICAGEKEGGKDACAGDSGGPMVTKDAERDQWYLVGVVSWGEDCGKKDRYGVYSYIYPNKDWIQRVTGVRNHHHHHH
*1 amine or outer side, *2 acyl side, *3 side chain or, on linkers, in order; H or OH if unused. Where a SMILES comes first, the peptide text is derived from it. Bridges are numbered along the chain shown (N, C = ends). [ ]: non-standard residue; d: D form. Adipoyl = O=C(CCCCC(=O)[*:2])[*:1]; tBuAla = CC(C)(C)C[C@H](N)C(=O)O; Pen = CC(C)(S)[C@H](N)C(=O)O; Dap = NC[C@H](N)C(=O)O; Ahx = NCCCCCC(=O)O; Sar = CNCC(=O)O
Only the number, expressed in nM, is required.

molecule: CC[C@H](C)[C@@H]1NC(=O)CNC(=O)[C@H](CC(=O)O)NC(=O)[C@@H]2CCCN2C(=O)[C@H]([C@@H](C)CC)NC(=O)[C@@H]2CSSC[C@H](NC1=O)C(=O)N[C@@H](CO)C(=O)N[C@@H](CCCNC(=N)N)C(=O)N[C@@H](CO)C(=O)N[C@@H](CC(C)C)C(=O)N1CCC[C@H]1C(=O)N1CCC[C@H]1C(=O)N[C@@H]([C@@H](C)CC)C(=O)N2 [Ref. No 7, reference compound] (cyclo(CIPDGICSRSLPPI); disulfide 1-7)
IC50 [nM]: 1000

molecule: CC[C@H](C)[C@@H]1NC(=O)CN(C)C(=O)CCCCCNC(=O)[C@H]([C@@H](C)CC)NC(=O)[C@H]2NC(=O)[C@H]([C@@H](C)CC)NC(=O)[C@@H]3CCCN3C(=O)[C@@H]3CCCN3C(=O)[C@H](CC(C)(C)C)NC(=O)[C@H](CO)NC(=O)[C@H](CCCNC(=N)N)NC(=O)[C@H](CO)NC(=O)[C@H](CSSC2(C)C)NC1=O [Example 64] (cyclo([Ahx][Sar]ICSRS[tBuAla]PPI[Pen]I); disulfide 4-12)
IC50 [nM]: 157

molecule: CC[C@H](C)[C@@H]1NC(=O)[C@@H]2CCCN2C(=O)[C@@H]2CCCN2C(=O)[C@H]([C@@H](C)CC)NC(=O)[C@@H]2CSSC[C@H](NC(=O)[C@H]([C@@H](C)O)NC(=O)[C@H](CCCCN)NC(=O)[C@H](CO)NC1=O)C(=O)N[C@@H](CCCNC(=N)N)C(=O)NCC(=O)N[C@@H](CC(=O)O)C(=O)N1CCC[C@H]1C(=O)N[C@@H](Cc1ccccc1)C(=O)N2 [Ref. No 12, reference compound] (cyclo(RGDPFCIPPISKTC); disulfide 6-14)
IC50 [nM]: 1000

molecule: CC[C@H](C)[C@@H]1NC(=O)CNC(=O)CCCCCNC(=O)[C@H](CC(=O)O)NC(=O)[C@@H]2CCCN2C(=O)[C@H]([C@@H](C)CC)NC(=O)[C@H]2NC(=O)[C@H]([C@@H](C)CC)NC(=O)[C@@H]3CCCN3C(=O)[C@@H]3CCCN3C(=O)[C@H](CC(C)(C)C)NC(=O)[C@H](CO)NC(=O)[C@H](CCCNC(=N)N)NC(=O)[C@H](CO)NC(=O)[C@H](CSSC2(C)C)NC1=O [Example 28] (cyclo([Ahx]GICSRS[tBuAla]PPI[Pen]IPD); disulfide 4-12)
IC50 [nM]: 79

The record that follows has no IC50 shown yet.
Param item = CC[C@H](C)[C@@H]1NC(=O)CCCCC(=O)NC[C@@H](C(N)=O)NC(=O)[C@H](CC(=O)O)NC(=O)[C@@H]2CCCN2C(=O)[C@H]([C@@H](C)CC)NC(=O)[C@H]2NC(=O)[C@H]([C@@H](C)CC)NC(=O)[C@@H]3CCCN3C(=O)[C@@H]3CCCN3C(=O)[C@H](CC(C)(C)C)NC(=O)[C@H](CO)NC(=O)[C@H](CCCNC(=N)N)NC(=O)[C@H](CO)NC(=O)[C@H](CSSC2(C)C)NC1=O [Example 60] (ICSRS[tBuAla]PPI[Pen]IPD[Dap]-NH2; disulfide 2-10; linker N-14 via Adipoyl) ; retrieve measured IC50.
330
